tested on: Staphylococcus aureus; assay: Antibacterial activity against Staphylococcus aureus ATCC 29213; type: functional
Reported MIC values follow for various molecules
Express your answer as a number followed by its unit.

Return MIC measured with Staphylococcus aureus given this molecule: O=C(NN1C(=O)[C@H](Cl)[C@H]1c1ccccc1)c1cc(-c2ccc(Cl)cc2)n[nH]1 (racemic)
0.51 µg/mL

Try this molecule too: `COc1c(N2C[C@@H]3CCCN[C@@H]3C2)c(F)cc2c(=O)c(C(=O)O)cn(C3CC3)c12`
0.06 µg/mL

Try this molecule too: O=C(NN1C(=O)CSC1c1cccc([N+](=O)[O-])c1)c1cc(-c2ccc(Cl)cc2)n[nH]1 (racemic)
8 µg/mL
